Kindly supply the reported PC50 values for the records listed here.
- System: HT-22
- assay-explanation: The concentration producing 50% protection against L-HCA-mediated neurotoxicity in HT-22 hippocampal cell line.
- Type: functional, Mus musculus
One number for each entry, in µM.

| molecule | measurement-label | numeric-readout |
| --- | --- | --- |
| CC(C)(C)Oc1ccc2c(c1)C=CC1(CCCCC1)N2 | PC50 | 0.13 |
| O=c1c2ccccc2[se]n1-c1ccccc1 [EBSELEN] | PC50 | 1 |
| CCOc1cccc2c1NC(C)(C)C=C2 | PC50 | 1 |

Kindly give each listed record's PC50.
1. CC(C)(C)C(=O)Oc1ccc2c(c1)C=CC1(CCCCC1)N2
2. CC1=NN(c2ccccc2)C(=O)C1 [EDARAVONE]
3. CCOc1c(C)cc2c(c1C)C=CC(C)(C)N2
4. CCOc1c(C)c(C)c2c(c1C)CCC1(CCCCC1)N2

**Result**
[0.73, 70.4, 0.35, 0.15]

###

- Test system: HT-22
- assay-explanation: The concentration producing 50% protection against L-HCA-mediated neurotoxicity in HT-22 hippocampal cell line.
- Type: functional, Mus musculus
measurement-label: PC50 (µM)
Answers are plain numbers, in µM.

# example entries with known answers
| structure-string | assayed-system | measurement-label | numeric-readout |
| --- | --- | --- | --- |
| CCOc1c(C)cc2c(c1C)C=CC1(CCCCC1)N2 | HT-22 | PC50 | 0.03 |
| CCOc1c(C)cc2c(c1C)CCC1(CCCCC1)N2 | HT-22 | PC50 | 0.01 |

Kindly give each listed record's PC50.
1. CCOc1cccc2c1NC1(C=C2)CCCCC1
2. CCOc1ccc2c(c1)C=CC1(CCN(CC3CC3)CC1)N2
3. CCOc1c(C)c(C)c2c(c1C)C=CC(C)(C)N2
4. CCOc1ccc2c(c1)C=CC1(CCNCC1)N2

**Result**
[0.37, 0.77, 0.46, 0.51]

**Query** Tell me the measured PC50 of `CCOc1c(C(C)C)cc2c(c1C(C)C)C=CC(C)(C)N2` , please.
**Result** 0.07

###

- Tested on: HT-22
- assay-explanation: The concentration producing 50% toxicity in HT-22 hippocampal cell line.
- Type: functional
- measurement-context: Mus musculus, read-out: TC50 (the source's name)
Parameter class (string): assigned from measured CC50. Ranges: low = under 20 µM, middle = from 20 µM up to 100 µM, high = 100 µM and over

| compound | qualitative-label |
| --- | --- |
| CCOc1cccc2c1NC(C)(C)C=C2 | high |
| CCOc1c(C)cc2c(c1C)C=CC1(CCCCC1)N2 | low |
| CCOc1ccc2c(c1)C=CC(C)(C)N2 | middle |
| CCOc1c(C)cc2c(c1C)C=CC(C)(C)N2 | high |
| CC(C)(C)Oc1ccc2c(c1)C=CC1(CCCCC1)N2 | low |

**Query** Band for `CCOc1ccc2c(c1)C=CC1(CCN(CC3CC3)CC1)N2` ?
**Result** high

**Query** And then `CCOc1ccc2c(c1)C=CC1(CCCCC1)N2` , what is it?
**Result** low

**Query** And then `CC1=NN(c2ccccc2)C(=O)C1` , what is it?
**Result** high

**Query** And then `CCOc1ccc2c(c1)C=CC1(CCNCC1)N2` , what is it?
**Result** high

**Query** And then `CCOc1c(C(C)C)cc2c(c1C(C)C)C=CC(C)(C)N2` , what is it?
**Result** high

**Query** And then `CCOc1c(C)c(C)c2c(c1C)CCC1(CCCCC1)N2` , what is it?
**Result** low

**Query** And then `CCOc1c(C)cc2c(c1C)CCC1(CCCCC1)N2` , what is it?
**Result** low

**Query** And then `CCOc1c(C(C)C)cc2c(c1C(C)C)C=CC1(CCCCC1)N2` , what is it?
**Result** low

**Query** And then `C1=CC2(CCCCC2)Nc2ccc(Oc3ccccc3)cc21` , what is it?
**Result** low

**Query** And then `CC(C)(C)C(=O)Oc1ccc2c(c1)C=CC1(CCCCC1)N2` , what is it?
**Result** low

**Query** And then `CCOc1c(C)cc2c(c1C)CCC(C)(C)N2` , what is it?
**Result** high

**Query** And then `CCOc1c(C(C)(C)C)cc2c(c1C(C)(C)C)C=CC(C)(C)N2` , what is it?
**Result** middle

**Query** And then `CCOc1c(C)c(C)c2c(c1C)C=CC(C)(C)N2` , what is it?
**Result** high

**Query** And then `CCOc1cccc2c1NC1(C=C2)CCCCC1` , what is it?
**Result** low

**Query** And then `CCOc1ccc2c(c1)CCC1(CCCCC1)N2` , what is it?
**Result** middle

**Query** And then CCOc1ccc2c(c1)C(C)CC(C)(C)N2 (configuration not stated) , what is it?
**Result** high

**Query** And then `CCOc1c(C)c(C)c2c(c1C)C=CC1(CCCCC1)N2` , what is it?
**Result** low

**Query** And then `COc1ccc2c(c1)C=CC1(CCCCC1)N2` , what is it?
**Result** middle

**Query** And then `CCOc1c(C)c(C)c2c(c1C)CCC(C)(C)N2` , what is it?
**Result** high

**Query** And then `CCOc1c(C(C)C)cc2c(c1C(C)C)CCC(C)(C)N2` , what is it?
**Result** low

###

- System: HT-22
- assay-explanation: The concentration producing 50% protection against L-HCA-mediated neurotoxicity in HT-22 hippocampal cell line.
- Type: functional, Mus musculus
So basically: is PC50 under 0.2 µM? Then Satisfied. Not under? Then Not satisfied.

| compound | assayed-system | qualitative-label |
| --- | --- | --- |
| CCOc1ccc2c(c1)C=CC(C)(C)N2 | HT-22 | Satisfied |
| CCOc1ccc2c(c1)C(C)CC(C)(C)N2 (configuration not stated) | HT-22 | Not satisfied |
| CCOc1c(C)c(C)c2c(c1C)C=CC1(CCCCC1)N2 | HT-22 | Satisfied |

**Query** Answer whether the compound `CCOc1ccc2c(c1)CCC1(CCCCC1)N2` has PC50 strictly less than 0.2 µM
**Result** Satisfied

**Query** And then `CCOc1c(C)cc2c(c1C)CCC(C)(C)N2` , what is it?
**Result** Satisfied

**Query** And then `CCOc1c(C(C)(C)C)cc2c(c1C(C)(C)C)C=CC(C)(C)N2` , what is it?
**Result** Satisfied
